Assay: Pharmacokinetics evaluation in rats after intragastric administration
Settings: male, rat, plasma, po, 5 mg/kg
Counter-ions that a name gives are not always drawn.
Endpoint label: half-life (h)
Supply the numeric figure in h, leaving out any unit text.

Guide cases for half-life, answers given:
1) CS(=O)(=O)c1cc2cnc(Nc3ccc(C4=CCNCC4)cn3)nc2n1C1CCCC1.Cl [Example 4] ... 3.28
2) CN(C)C(=O)c1cc2cnc(Nc3ccc(C4=CCNCC4)cn3)nc2n1C1CCCC1.Cl [Example 6] ... 3.76

Let me know recorded half-life for CS(=O)(=O)c1cc2cnc(Nc3ccc(N4CCNCC4)cn3)nc2n1C1CCCC1 [Example 1, hydrochloride] , thanks.
7.23
